- system tested: Ubiquitin carboxyl-terminal hydrolase 1 (Homo sapiens) (UniProt O94782)
- Sequence (O94782 whole entry, looked up): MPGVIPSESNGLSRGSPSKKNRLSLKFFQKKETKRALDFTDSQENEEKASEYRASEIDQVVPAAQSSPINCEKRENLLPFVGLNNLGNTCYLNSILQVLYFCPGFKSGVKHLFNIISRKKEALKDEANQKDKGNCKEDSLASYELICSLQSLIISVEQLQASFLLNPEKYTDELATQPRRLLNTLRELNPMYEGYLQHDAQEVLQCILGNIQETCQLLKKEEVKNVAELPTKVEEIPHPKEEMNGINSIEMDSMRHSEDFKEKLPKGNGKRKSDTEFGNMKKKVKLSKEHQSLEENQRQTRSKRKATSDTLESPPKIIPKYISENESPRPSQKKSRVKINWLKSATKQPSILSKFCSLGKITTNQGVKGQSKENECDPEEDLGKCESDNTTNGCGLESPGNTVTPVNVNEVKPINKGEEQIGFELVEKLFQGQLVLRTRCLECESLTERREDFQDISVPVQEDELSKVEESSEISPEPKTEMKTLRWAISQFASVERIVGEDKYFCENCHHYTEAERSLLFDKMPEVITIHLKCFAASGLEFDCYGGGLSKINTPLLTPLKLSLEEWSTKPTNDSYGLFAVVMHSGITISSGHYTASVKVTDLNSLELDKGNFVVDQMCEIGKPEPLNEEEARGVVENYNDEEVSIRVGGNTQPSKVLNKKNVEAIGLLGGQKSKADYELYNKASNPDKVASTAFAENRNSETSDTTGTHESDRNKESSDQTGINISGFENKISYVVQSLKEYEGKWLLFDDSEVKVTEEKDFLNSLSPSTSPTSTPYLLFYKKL
- method summary: Inhibitors of USP1/UAF1: Pilot qHTS (AID 504865); note: nearly all actives have a fitted effect of over 35% in size
- run conditions: purified USP1/UAF1, Ub-rhodamine cleavage fluorescence; series mostly up to 114 µM
Records with an inconclusive call do not appear. Calls of active or inactive are those of the source. Calls come from the whole dose curve; as a rule, active = well fitted inhibition curve with a large enough effect; inconclusive = small, poorly fitted or top-dose-only effect; inactive = flat fitted curve, though single readings scatter.
Possible outcomes: T for active, F for inactive

| cpd smiles | class label |
| --- | --- |
| Clc1ccc2c(c1)CCc1cccnc1C2=C1CCNCC1 | F |
| C[N+]1(CCCCC[N+]2(C)CCCC2)CCCC1 | F |
| c1ccc(CNCCNCc2ccccc2)cc1 | F |
| O=c1ccc2ccccc2o1 | F |
| C[C@]12CC[C@@H]3c4ccc(O)cc4CC[C@H]3[C@@H]1CC[C@@H]2O | F |
| Cc1cc(N)c2cc(NC(=O)Nc3ccc4nc(C)cc(N)c4c3)ccc2n1 | T |

* * *

- method summary: Primary qHTS for inhibitors of nuclear receptor binding SET domain protein 2 (NSD2) in an RCH-ACV wild type WT cells (2C) (AID 1645877); note: nearly all actives have a fitted effect of over 70% in size; note: potency is the fitted concentration of half-maximal effect
- run conditions: RCH-ACV (leukaemia line) NSD2 WT (2C) viability, CellTiter-Glo, 72 h; series mostly up to 44.9 µM
Records with an inconclusive call do not appear. Active and inactive are the calls of the source. Calls come from the whole dose curve; as a rule, active = well fitted inhibition curve with a large enough effect; inconclusive = small, poorly fitted or top-dose-only effect; inactive = no such curve, though single readings can be large or run the other way.

| compound | Potency |
| --- | --- |
| Cc1ccc(C(=O)C(C)CN2CCCCC2)cc1 (stereo unspecified) | 21.1 µM (active) |
| COc1cc(N)c(Cl)cc1C(=O)NC1CCN(CCCOc2ccc(F)cc2)CC1OC (stereo unspecified) | 21.1 µM (active) |
| CCC(C(=O)OCCN(CC)CC)c1ccccc1 (stereo unspecified) | inactive |
| COc1cc(C(=S)N2CCOCC2)cc(OC)c1OC | inactive |
| COc1ccc(C2C(=O)c3ccccc3C2=O)cc1 | inactive |
| CCCCS(=O)(=O)N[C@@H](Cc1ccc(OCCCCC2CCNCC2)cc1)C(=O)O | inactive |
| COc1cc2c(cc1OC)[C@@H]1CC(=O)[C@@H](CC(C)C)CN1CC2 | inactive |
| CC1(C)O[C@@H]2C[C@H]3[C@@H]4C[C@H](F)C5=CC(=O)C=C[C@]5(C)[C@H]4[C@@H](O)C[C@]3(C)[C@]2(C(=O)CO)O1 | 0.0166 µM (active) |
| O=C(O)CCCCC(=O)O | inactive |
| O=S1(=O)c2cccc3cccc(c23)N1CCCN1CCN(c2ccc(F)cc2)CC1 | inactive |
| NC(=O)c1cc[n+](CC2=C(C(=O)[O-])N3C(=O)[C@@H](NC(=O)Cc4cccs4)[C@H]3SC2)cc1 | inactive |

* * *

- Test system: CP315
- method summary: qHTS profiling for inhibitors of Plasmodium falciparum proliferation (AID 504749); note: nearly all actives have a fitted effect of over 60% in size
- run conditions: P. falciparum in erythrocytes, SYBR Green DNA, 72 h; series mostly up to 28.7 µM
Results filed as inconclusive are left out. The source made the active and inactive calls. Calls follow the shape of the dose curve; as a rule, active = well fitted inhibition curve with a large enough effect; inconclusive = small, poorly fitted or top-dose-only effect; inactive = flat fitted curve, though single readings scatter.
Possible outcomes: true (1) for active, false (0) for inactive

| molecule | class label |
| --- | --- |
| O=C(OCCOCCO)c1ccccc1Nc1cccc(C(F)(F)F)c1 | false (0) |
| C#C[C@]1(OC(C)=O)CC[C@H]2[C@@H]3CCC4=C[C@@H](OC(C)=O)CC[C@@H]4[C@H]3CC[C@@]21C | false (0) |
| CN1CCN(C(c2ccccc2)c2ccccc2)CC1 | false (0) |
| C[C@@H]1C(=O)NC2=Nc3cccc(Cl)c3CN21 | false (0) |
| CCN1CCCC1=O | false (0) |
| C1CCc2nnnn2CC1 | false (0) |
| CCC(=O)c1c(O)cc(O)cc1O | false (0) |
| CCN(CC)C(=O)N1CCN(C)CC1 | false (0) |
| CN1CCN(CCCN2c3ccccc3Sc3ccc(S(=O)(=O)N(C)C)cc32)CC1 | false (0) |
| CC1=C(C(=O)OC(C)C)C(c2cccc([N+](=O)[O-])c2)C(C(=O)OC2CN(C(c3ccccc3)c3ccccc3)C2)=C(N)N1 (configuration not stated) | true (1) |
| NCCc1ccn[nH]1 | false (0) |
| c1ccc(-c2ccc(C(c3ccccc3)n3ccnc3)cc2)cc1 (configuration not stated) | true (1) |
| COc1cc(C(=S)N2CCOCC2)cc(OC)c1OC | false (0) |
| Cc1ncc(CSSCc2cnc(C)c(O)c2CO)c(CO)c1O | false (0) |
| O=C1OCCN1/N=C/c1ccc([N+](=O)[O-])o1 | false (0) |
| C[C@]12CCC(=O)C=C1CC[C@H]1[C@@H]3CC[C@](O)(C(=O)CO)[C@@]3(C)C[C@H](O)[C@@]12F | false (0) |
| Cc1c(F)c(N2CCNC(C)C2)cc2c1c(=O)c(C(=O)O)cn2C1CC1 (configuration not stated) | false (0) |
| CC(=O)Oc1ccc(C(c2ccc(OC(C)=O)cc2)c2ccccn2)cc1 | false (0) |
| NC(=NCCCCCCN=C(N)/N=C(\N)Nc1ccc(Cl)cc1)/N=C(\N)Nc1ccc(Cl)cc1 | true (1) |
| CCN(CCCc1ccccc1)CCCc1ccccc1 | false (0) |
| NC(CO)(CO)CO | false (0) |
| CCCCC(CC)CN=C(N)NC(N)=NCCCCCCN=C(N)NC(N)=NCC(CC)CCCC (configuration not stated) | true (1) |
